- Target Or System: KRAS-G12C/SOS1 (Homo sapiens, UniProt P01116, G12C)
- Construct: purchased Cisbio #63ADK000CB16PEG
- Sequence (P01116 1-188 isoform P01116-2 G12C): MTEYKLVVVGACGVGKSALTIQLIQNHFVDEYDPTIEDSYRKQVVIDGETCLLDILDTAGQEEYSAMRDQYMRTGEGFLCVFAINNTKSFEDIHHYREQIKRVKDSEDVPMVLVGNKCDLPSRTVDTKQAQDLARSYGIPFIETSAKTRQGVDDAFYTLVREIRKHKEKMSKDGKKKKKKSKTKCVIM
- Test: HTRF KRAS-G12C/SOS1 binding assay
- Condition: 2 hours room temperature
Please go through the items and note down their IC50.

response.value for C=CC(=O)N1CCN(c2nc(=O)n(-c3c(C)ccnc3C(C)C)c3nc(-c4c(F)c(F)cc5ccoc45)c(F)cc23)[C@@H](C)C1 (single isomer, unassigned) [Compound 74-1] (field: IC50) = 50 to 100 nM

response.value for C=CC(=O)N1CCN(c2nc(=O)n(-c3c(C(C)C)ccnc3C(C)C)c3nc(-c4c(F)ccc5ccoc45)c(Cl)cc23)[C@@H](C)C1 [Compound 122] (field: IC50) = < 50 nM

response.value for C=CC(=O)N1CCN(c2nc(=O)n(-c3c(C)ccnc3C(C)C)c3nc(-c4c(F)c(F)cc5ccoc45)c(Cl)cc23)[C@@H](C)C1 (single isomer, unassigned) [Compound 103-1] (field: IC50) = < 50 nM

response.value for C=CC(=O)N1C[C@H](C)N(c2nc(=O)n(-c3c(C)ccnc3C(C)C)c3nc(-c4c(F)ccc5ccoc45)c(Cl)cc23)C[C@H]1C (single isomer, unassigned) [Compound 90-1] (field: IC50) = < 50 nM

response.value for C=CC(=O)N1CCN(c2nc(=O)n(-c3c(C)ccnc3C(C)C)c3nc(-c4c(F)ccc5c4OCO5)c(Cl)cc23)[C@@H](C)C1 [Compound 97] (field: IC50) = 50 to 100 nM

response.value for C=CC(=O)N1CCN(c2nc(=O)n(-c3c(C)ccnc3C(C)C)c3nc(-c4c(F)ccc5ccoc45)c(F)cc23)[C@@H](C)C1 (single isomer, unassigned) [Compound 70-1] (field: IC50) = 50 to 100 nM

response.value for C=CC(=O)N1C[C@H](C)N(c2nc(=O)n(-c3c(C)ccnc3C(C)C)c3nc(-c4c(F)ccc5ccoc45)c(Cl)cc23)C[C@H]1C [Compound 90] (field: IC50) = 50 to 100 nM

response.value for C=CC(=O)N1CCN(c2nc(=O)n(-c3c(C)ccnc3C(C)C)c3nc(-c4c(F)ccc5ccoc45)c(Cl)cc23)[C@@H](C)C1 [Compound 73] (field: IC50) = < 50 nM
